# Test system: OVCAR-8 ovarian
# assay text: NCI tumour cell line growth inhibition, 48 h
The compounds listed here are annotated with their TGI.
property: TGI (µM)

- Cn1c2c(c3ccccc31)CCN(CCCCN1CCN(c3cccc(Cl)c3)CC1)C2=O: 48
- N=C(N)SCc1cccc2c(=O)cc(-c3ccccc3)oc12: 29.8
- C[C@H]1C(Oc2ccc(O)cc2)OC2OC3(C)CCC4[C@H](C)CCC1C24OO3 (stereo partly drawn): 25.4

* * *

# Tested on: NCI-H23 lung
# assay text: NCI tumour cell line growth inhibition, 48 h
The molecules listed here are annotated with their GI50.
property: GI50

- CCCCCCCCCCCCOC1C(CNC(=O)C2OC3OC(C)(C)OC3C2NC(=O)CN2CCCCCC2)OC2OC(C)(C)OC21 (stereo not given): 10.9 µM
- N[C@@H]1CCCN(c2c(/C=C3\SC(=O)NC3=O)cccc2-c2ccccc2)C1: 15.3 µM
- C/C(Cc1ccc(Cl)cc1)=C(/c1ccc(Cl)cc1)c1ccc(OCCN(C)C)cc1: 4.54 µM
- C#CCOc1cccc(Nc2ncnc3ccc(NC(=O)CCl)cc23)c1: 2.87 µM
- CCOC(=O)Nc1ccc(-c2nc(-c3cccc(OC)c3)c(-c3ccnc(Br)c3)[nH]2)cc1: 2 µM
